Where do these numbers come from? They come from ChEMBL document CHEMBL1135841.

biological target: Peptidyl-prolyl cis-trans isomerase FKBP1A (Homo sapiens); test: Inhibition of peptidyl-prolyl isomerase (PPIase, or rotamase) activity of FK506 binding protein 12
Sequence (P62942 whole entry): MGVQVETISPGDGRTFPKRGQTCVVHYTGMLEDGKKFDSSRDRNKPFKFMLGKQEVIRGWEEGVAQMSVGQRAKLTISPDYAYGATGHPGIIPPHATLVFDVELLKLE
ASSAY_METRIC: Ki (nM)

{"columns": ["COMPOUND", "DISPLAY_UNIT", "READOUT_RELATION", "OBSERVED_RESULT"],
 "data": [
  ["COc1ccc(CCCOC(=O)C2CCCCN2C(=O)NC23CC4CC(CC(C4)C2)C3)c(OC)c1 (stereo not drawn)", "nM", "=", 12],
  ["O=C(OCCCc1ccc(F)cc1)[C@@H]1CCCN1/C(S)=N/C12C[C@H]3C[C@@H](C1)C[C@@H](C2)C3", "nM", "=", 850],
  ["O=C(OCCCCc1ccccc1)[C@@H]1CCCN1C(=O)NC12C[C@H]3C[C@@H](C1)C[C@@H](C2)C3", "nM", "=", 470],
  ["COc1ccc(CCCOC(=O)C2CCCCN2S(=O)(=O)c2ccccc2)cc1OC (stereo not drawn)", "nM", "=", 180],
  ["C[C@@H](NC(=O)N1CCC[C@H]1C(=O)OCCCc1ccc(Br)cc1)c1ccccc1", "nM", ">", 10000],
  ["O=C(OCCc1ccccc1)[C@@H]1CCCN1C(=O)Nc1ccccc1", "nM", "=", 1300],
  ["Cc1ccc(S(=O)(=O)N2CCCCC2C(=O)OCCCc2ccc(Cl)cc2)cc1 (stereo not drawn)", "nM", "=", 4400],
  ["O=C(OCCCCc1ccccc1)[C@@H]1CCCN1C(=S)NC12C[C@H]3C[C@@H](C1)C[C@@H](C2)C3", "nM", "=", 7200],
  ["COc1cc(CCCOC(=O)C2CCCCN2S(=O)(=O)Cc2ccccc2)cc(OC)c1 (stereo not drawn)", "nM", "=", 120],
  ["O=C(OCCCc1ccc(F)cc1)[C@@H]1CCCN1C(=O)NC12C[C@H]3C[C@@H](C1)C[C@@H](C2)C3", "nM", "=", 1200],
  ["COc1cc(CCCOC(=O)C2CCCCN2S(=O)(=O)c2ccccc2)cc(OC)c1 (stereo not drawn)", "nM", "=", 480],
  ["C[C@@H](NC(=O)N1CCC[C@H]1C(=O)OCCCc1ccc(F)cc1)c1ccccc1", "nM", "=", 4400],
  ["COc1ccc(CCCOC(=O)C2CCCCN2S(=O)(=O)c2ccc(C)cc2)cc1 (stereo not drawn)", "nM", "=", 220]
]}
